- Target: 20S core particle (CP) proteasome
- Procedure details: cell-based or functional assay
Non-standard residues stand in square brackets, D forms with d. dPra = C#CC[C@@H](N)C(=O)O; dDap = NC[C@@H](N)C(=O)O
Below, each entry is listed with its recorded TAS-1 (percent stimulation of 20S CP).

Binder: cyclo(T[dV]F[dF]R[dA]) (SMILES CC(C)[C@H]1NC(=O)[C@H]([C@@H](C)O)NC(=O)[C@@H](C)NC(=O)[C@H](CCCNC(=N)N)NC(=O)[C@@H](Cc2ccccc2)NC(=O)[C@H](Cc2ccccc2)NC1=O) [CyPPS13]
TAS-1 (percent stimulation of 20S CP): 422 % of DMSO
--
Binder: cyclo(TVF[dF]A[dR]) (SMILES CC(C)[C@@H]1NC(=O)[C@H]([C@@H](C)O)NC(=O)[C@@H](CCCNC(=N)N)NC(=O)[C@H](C)NC(=O)[C@@H](Cc2ccccc2)NC(=O)[C@H](Cc2ccccc2)NC1=O) [CyPPS27]
TAS-1 (percent stimulation of 20S CP): 109 % of DMSO
--
Binder: cyclo(A[dL]F[dF]R[dA]) (SMILES CC(C)C[C@H]1NC(=O)[C@H](C)NC(=O)[C@@H](C)NC(=O)[C@H](CCCNC(=N)N)NC(=O)[C@@H](Cc2ccccc2)NC(=O)[C@H](Cc2ccccc2)NC1=O) [CyPPS2]
TAS-1 (percent stimulation of 20S CP): 241 % of DMSO
--
Binder: cyclo(T[dPra]F[dF]R[dA]) (SMILES C#CC[C@H]1NC(=O)[C@H]([C@@H](C)O)NC(=O)[C@@H](C)NC(=O)[C@H](CCCNC(=N)N)NC(=O)[C@@H](Cc2ccccc2)NC(=O)[C@H](Cc2ccccc2)NC1=O) [CyPPS14]
TAS-1 (percent stimulation of 20S CP): 388 % of DMSO
--
Binder: cyclo(T[dL]F[dF]R[dDap]) (SMILES CC(C)C[C@H]1NC(=O)[C@H]([C@@H](C)O)NC(=O)[C@@H](CN)NC(=O)[C@H](CCCNC(=N)N)NC(=O)[C@@H](Cc2ccccc2)NC(=O)[C@H](Cc2ccccc2)NC1=O) [CyPPS23]
TAS-1 (percent stimulation of 20S CP): 352 % of DMSO
--
Binder: cyclo(T[dL]F[dF]R[dPra]) [CyPPS33]
TAS-1 (percent stimulation of 20S CP): 238 % of DMSO
--
Binder: cyclo(T[dA]F[dF]R[dA]) (SMILES C[C@H]1NC(=O)[C@H](CCCNC(=N)N)NC(=O)[C@@H](Cc2ccccc2)NC(=O)[C@H](Cc2ccccc2)NC(=O)[C@@H](C)NC(=O)[C@H]([C@@H](C)O)NC1=O) [CyPPS3]
TAS-1 (percent stimulation of 20S CP): 178 % of DMSO
